Cited source for all entries: PubChem BioAssay (EPA / NIEHS)

Read-out: Monokine induced gamma interferon (MIG), CXCL9 (gene 4283)
Assay text: BSK_hDFCGF_MIG: BioMAP Diversity Plus: hDFCGF Assay for Monokine induced gamma interferon (MIG) Biomarker Activity (AID 2283063)
Condition details: primary human foreskin fibroblasts; actives raise or lower the signal
Calls of active or inactive are those of the source. The calls were made as follows: active = hit-call score of the fitted dose curve at least 0.9, where 1 is the maximum; inactive = score below 0.9.
Parameter call: string, one of class 1 (active), class 0 (inactive)

See these solved cases before continuing.
{"Molecule": "O=NO", "Class name": "class 0"}
{"Molecule": "CCCCCCCCCC[N+](C)(C)[O-]", "Class name": "class 0"}
{"Molecule": "CCCCC(CC)COP(=O)(OCC(CC)CCCC)OCC(CC)CCCC (stereo unspecified)", "Class name": "class 0"}
{"Molecule": "OCC(O)CO", "Class name": "class 0"}
{"Molecule": "Cc1cc(SC2=C(O)C[C@@](CCc3ccc(N)cc3)(C(C)C)OC2=O)c(C(C)(C)C)cc1CO", "Class name": "class 0"}

// param item: C#CC(O)C(CC)CCCC (stereo unspecified) ; yields the recorded call
class 0

// param item: c1ccc2occc2c1 ; yields the recorded call
class 0

// param item: COC(=O)CCC(=O)OC ; yields the recorded call
class 0

// param item: O=C(O)c1cccnc1 ; yields the recorded call
class 0

// param item: O=C1c2c(O)cccc2Cc2cccc(O)c21 ; yields the recorded call
class 1

// param item: N[C@@H](Cc1c[nH]c2ccccc12)C(=O)O ; yields the recorded call
class 0
